# Assay: Half life in rat liver microsomes at 1 uM preincubated for 10 mins followed by NADPH addition measured for 30 to 60 mins by LC-MS/MS analysis
# Format: ADME
Value Kind: half-life at 1 µM

- Compound String: "Cc1cc(-c2ncc(CC(=O)Nc3ccc(-c4cnccn4)cn3)cc2C)ccn1"
  Recorded Result: "12.8 h"
- Compound String: "Cc1cc(-c2ncc(CNC(=O)c3ccc4c(c3)[nH]c3ccccc34)cc2F)ccn1"
  Recorded Result: "1.33 h"
- Compound String: "Cc1cc(-c2ccc(CNC(=O)c3ccc4c(c3)[nH]c3ccccc34)cc2)ccn1"
  Recorded Result: "4.62 h"

----------
Recorded half-life at 1 µM by entry
# Assay: Half life in human liver microsomes at 1 uM preincubated for 10 mins followed by NADPH addition measured for 30 to 60 mins by LC-MS/MS analysis
# Assay type: ADME
Value Kind: half-life at 1 µM (min)

- Compound: "Cc1cc(-c2ccc(CNC(=O)c3ccc4c(c3)[nH]c3ccccc34)cc2)ccn1"
  Value Unit: "min"
  Recorded Result: 30
- Compound: "Cc1cc(-c2ncc(CNC(=O)c3ccc4c(c3)[nH]c3ccccc34)cc2F)ccn1"
  Value Unit: "min"
  Recorded Result: 31
- Compound: "Cc1cc(-c2ncc(CC(=O)Nc3ccc(-c4cnccn4)cn3)cc2C)ccn1 [WNT-974]"
  Value Unit: "min"
  Recorded Result: 561

----------
# Assay: Solubility of the compound in FaSSIF at pH 6.5 at 4 mg/ml by LC-MS/MS analysis
# Format: physicochemical
Value Kind: solubility (µM)

- Compound String: "Cc1cc(-c2ncc(CNC(=O)c3ccc4c(c3)[nH]c3ccccc34)cc2F)ccn1.Cl"
  Value Unit: "µM"
  Recorded Result: 1.24
- Compound String: "Cc1cc(-c2ccc(CNC(=O)c3ccc4c(c3)[nH]c3ccccc34)cc2)ccn1.Cl"
  Value Unit: "µM"
  Recorded Result: 0.16

----------
# Test System: Protein-serine O-palmitoleoyltransferase porcupine (Mus musculus)
# Sequence (Q9JJJ7 whole entry): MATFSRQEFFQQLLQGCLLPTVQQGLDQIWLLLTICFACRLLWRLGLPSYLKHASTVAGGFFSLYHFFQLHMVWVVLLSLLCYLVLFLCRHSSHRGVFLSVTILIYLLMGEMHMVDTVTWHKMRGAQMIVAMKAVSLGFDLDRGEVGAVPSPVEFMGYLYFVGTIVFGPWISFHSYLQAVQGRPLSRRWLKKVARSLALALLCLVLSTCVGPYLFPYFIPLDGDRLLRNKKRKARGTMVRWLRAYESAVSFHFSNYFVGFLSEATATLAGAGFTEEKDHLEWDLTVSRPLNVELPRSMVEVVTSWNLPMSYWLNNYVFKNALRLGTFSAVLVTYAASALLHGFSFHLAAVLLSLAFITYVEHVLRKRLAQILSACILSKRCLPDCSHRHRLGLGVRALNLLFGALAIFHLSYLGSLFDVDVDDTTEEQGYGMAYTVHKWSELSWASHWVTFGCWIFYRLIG
# Assay: Inhibition of porcupine in mouse L Wnt3A cells co-cultured with HEK293 cells after 48 hrs by Super-top flash reporter gene assay
Mark fulfilled only when IC50 stays strictly below 0.06 µM. Values equal to the cut-off are not fulfilled.

- Molecule: "O=C(NCc1ccc2cnccc2c1)c1ccc2c(c1)[nH]c1ccccc12"
  Test System: "Protein-serine O-palmitoleoyltransferase porcupine (Mus musculus)"
  Discrete Label: "not fulfilled"
- Molecule: "O=C(NCc1ccc2c(c1)oc1ccccc12)c1ccc(-c2cnccn2)cc1"
  Test System: "Protein-serine O-palmitoleoyltransferase porcupine (Mus musculus)"
  Discrete Label: "not fulfilled"
- Molecule: "O=C(NCc1ccc(-n2ccnc2)cc1)c1ccc2c(c1)[nH]c1ccccc12"
  Test System: "Protein-serine O-palmitoleoyltransferase porcupine (Mus musculus)"
  Discrete Label: "not fulfilled"
- Molecule: "Cc1cn(-c2ccc(CNC(=O)c3ccc4c(c3)[nH]c3ccccc34)cc2)cn1"
  Test System: "Protein-serine O-palmitoleoyltransferase porcupine (Mus musculus)"
  Discrete Label: "not fulfilled"
- Molecule: "Cc1cc(-c2ncc(CNC(=O)c3ccc4c(c3)[nH]c3ccccc34)cc2C)ccn1"
  Test System: "Protein-serine O-palmitoleoyltransferase porcupine (Mus musculus)"
  Discrete Label: "fulfilled"
- Molecule: "N#Cc1ccc2cc(CNC(=O)c3ccc4c(c3)[nH]c3ccccc34)ccc2c1"
  Test System: "Protein-serine O-palmitoleoyltransferase porcupine (Mus musculus)"
  Discrete Label: "fulfilled"
- Molecule: "Cc1cc(-c2ncc(CNC(=O)c3ccc4c(c3)C(=O)c3ccccc3-4)cc2F)ccn1"
  Test System: "Protein-serine O-palmitoleoyltransferase porcupine (Mus musculus)"
  Discrete Label: "fulfilled"
- Molecule: "Cc1cc(-c2ccc(CNC(=O)c3ccc4c(c3)Cc3ccccc3-4)cc2)ccn1"
  Test System: "Protein-serine O-palmitoleoyltransferase porcupine (Mus musculus)"
  Discrete Label: "fulfilled"
- Molecule: "Cc1cc(-c2ncc(CNC(=O)c3ccc4c(c3)oc3ccccc34)cc2F)ccn1"
  Test System: "Protein-serine O-palmitoleoyltransferase porcupine (Mus musculus)"
  Discrete Label: "fulfilled"
- Molecule: "Cc1cc(-c2ncc(CC(=O)Nc3ccc(-c4cnccn4)cn3)cc2C)ccn1 [WNT-974]"
  Test System: "Protein-serine O-palmitoleoyltransferase porcupine (Mus musculus)"
  Discrete Label: "fulfilled"
- Molecule: "Cc1cc(-c2ccc(CNC(=O)c3ccc4c5ccccc5n(C)c4c3)cc2)ccn1"
  Test System: "Protein-serine O-palmitoleoyltransferase porcupine (Mus musculus)"
  Discrete Label: "not fulfilled"
- Molecule: "Cc1cc(-c2ccc(CNC(=O)c3ccc4c(c3)oc3ccccc34)cc2)ccn1"
  Test System: "Protein-serine O-palmitoleoyltransferase porcupine (Mus musculus)"
  Discrete Label: "fulfilled"
- Molecule: "O=C(NCc1ccc2c(c1)Cc1ccccc1-2)c1ccc(-c2cnccn2)cc1"
  Test System: "Protein-serine O-palmitoleoyltransferase porcupine (Mus musculus)"
  Discrete Label: "not fulfilled"
- Molecule: "O=C(NCc1ccc2c(c1)Cc1ccccc1-2)c1ccc(-c2ccccc2)cc1"
  Test System: "Protein-serine O-palmitoleoyltransferase porcupine (Mus musculus)"
  Discrete Label: "not fulfilled"
- Molecule: "Cc1cc(-c2ccc(CNC(=O)c3ccc4c(c3)[nH]c3ccccc34)cc2)ccn1"
  Test System: "Protein-serine O-palmitoleoyltransferase porcupine (Mus musculus)"
  Discrete Label: "fulfilled"
- Molecule: "Cc1cc(-c2ncc(CNC(=O)c3ccc4c(c3)Cc3ccccc3-4)cc2F)ccn1"
  Test System: "Protein-serine O-palmitoleoyltransferase porcupine (Mus musculus)"
  Discrete Label: "fulfilled"
- Molecule: "Cc1cc(-c2ccc(CNC(=O)c3ccc(-c4ccccc4)cc3)cc2)ccn1"
  Test System: "Protein-serine O-palmitoleoyltransferase porcupine (Mus musculus)"
  Discrete Label: "fulfilled"
- Molecule: "Cn1nccc1-c1ccc(CNC(=O)c2ccc3c(c2)[nH]c2ccccc23)cc1"
  Test System: "Protein-serine O-palmitoleoyltransferase porcupine (Mus musculus)"
  Discrete Label: "not fulfilled"
- Molecule: "O=C(NCc1ccc(-c2ccncc2)cc1)c1ccc2c(c1)[nH]c1ccccc12"
  Test System: "Protein-serine O-palmitoleoyltransferase porcupine (Mus musculus)"
  Discrete Label: "fulfilled"
- Molecule: "Cc1cc(-c2ccc(CNC(=O)c3ccc4c(c3)C(=O)c3ccccc3-4)cc2)ccn1"
  Test System: "Protein-serine O-palmitoleoyltransferase porcupine (Mus musculus)"
  Discrete Label: "not fulfilled"
- Molecule: "Cc1cc(-c2ccc(CNC(=O)c3ccc4c(c3)[nH]c3ccccc34)cn2)ccn1"
  Test System: "Protein-serine O-palmitoleoyltransferase porcupine (Mus musculus)"
  Discrete Label: "fulfilled"
- Molecule: "Cc1cc(-c2ncc(CNC(=O)c3ccc4c(c3)[nH]c3ccccc34)cc2F)ccn1"
  Test System: "Protein-serine O-palmitoleoyltransferase porcupine (Mus musculus)"
  Discrete Label: "fulfilled"
- Molecule: "Cc1cc(-c2ncc(CNC(=O)c3ccc4c5ccccc5n(C)c4c3)cc2F)ccn1"
  Test System: "Protein-serine O-palmitoleoyltransferase porcupine (Mus musculus)"
  Discrete Label: "not fulfilled"
- Molecule: "Cc1cc(-c2ncc(CNC(=O)c3ccc4c(c3)C(F)(F)c3ccccc3-4)cc2F)ccn1"
  Test System: "Protein-serine O-palmitoleoyltransferase porcupine (Mus musculus)"
  Discrete Label: "fulfilled"
- Molecule: "Cc1cc(-c2ccc(CNC(=O)c3ccc4c(c3)[nH]c3ccccc34)nc2)ccn1"
  Test System: "Protein-serine O-palmitoleoyltransferase porcupine (Mus musculus)"
  Discrete Label: "fulfilled"

----------
# Assay: Chemical stability in simulated gastric fluid assessed as remaining compound levels at 200 uM at 40 degC after 24 hrs by HPLC method
# Assay type: ADME
# Condition Parameters: read-out: Stability
Value Kind: remaining at 24 h, 200 µM (%)

- Compound String: "Cc1cc(-c2ccc(CNC(=O)c3ccc4c(c3)[nH]c3ccccc34)cc2)ccn1"
  Value Unit: "%"
  Recorded Result: 100
- Compound String: "Cc1cc(-c2ncc(CNC(=O)c3ccc4c(c3)[nH]c3ccccc34)cc2F)ccn1"
  Value Unit: "%"
  Recorded Result: 100
- Compound String: "Cc1cc(-c2ncc(CC(=O)Nc3ccc(-c4cnccn4)cn3)cc2C)ccn1"
  Value Unit: "%"
  Recorded Result: 66

----------
# Test System: CYP2C9 (Homo sapiens, UniProt P11712)
# Sequence (P11712 whole entry): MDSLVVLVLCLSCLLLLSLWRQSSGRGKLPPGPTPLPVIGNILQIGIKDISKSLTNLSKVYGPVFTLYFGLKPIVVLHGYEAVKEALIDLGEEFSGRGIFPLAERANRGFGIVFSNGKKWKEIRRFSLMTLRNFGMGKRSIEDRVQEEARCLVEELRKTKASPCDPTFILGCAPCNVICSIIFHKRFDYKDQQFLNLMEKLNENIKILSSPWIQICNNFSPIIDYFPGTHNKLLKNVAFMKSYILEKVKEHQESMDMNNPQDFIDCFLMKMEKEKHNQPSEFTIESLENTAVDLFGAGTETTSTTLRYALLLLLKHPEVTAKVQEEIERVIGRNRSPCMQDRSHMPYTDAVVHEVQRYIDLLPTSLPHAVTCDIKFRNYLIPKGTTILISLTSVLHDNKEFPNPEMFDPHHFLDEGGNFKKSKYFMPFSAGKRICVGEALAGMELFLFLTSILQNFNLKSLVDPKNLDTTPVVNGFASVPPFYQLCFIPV
# Assay: Inhibition of CYP2C9 in human liver microsomes at 10 uM preincubated for 10 mins followed by NADPH addition measured after 10 mins by LC-MS/MS analysis
# Format: ADME
Catalogue of inhibition at 10 min, 10 µM values
Value Kind: inhibition at 10 min, 10 µM (%)

- Compound String: "Cc1cc(-c2ccc(CNC(=O)c3ccc4c(c3)[nH]c3ccccc34)cc2)ccn1"
  Value Kind: "inhibition at 10 min, 10 µM"
  Recorded Result: -22
- Compound String: "Cc1cc(-c2ncc(CNC(=O)c3ccc4c(c3)[nH]c3ccccc34)cc2F)ccn1"
  Value Kind: "inhibition at 10 min, 10 µM"
  Recorded Result: 31

----------
A collection of compounds and their measured CLint scaled at 1 µM
# Assay: Intrinsic clearance in mouse liver microsomes at 1 uM preincubated for 10 mins followed by NADPH addition measured for 30 to 60 mins by LC-MS/MS analysis
# Assay type: ADME
# Condition Parameters: read-out: CLH
Value Kind: CLint scaled at 1 µM (mL/min/kg)

- Compound String: "Cc1cc(-c2ncc(CNC(=O)c3ccc4c(c3)[nH]c3ccccc34)cc2F)ccn1"
  Value Kind: "CLint scaled at 1 µM"
  Recorded Result: 109
- Compound String: "Cc1cc(-c2ncc(CC(=O)Nc3ccc(-c4cnccn4)cn3)cc2C)ccn1"
  Value Kind: "CLint scaled at 1 µM"
  Recorded Result: 22
- Compound String: "Cc1cc(-c2ccc(CNC(=O)c3ccc4c(c3)[nH]c3ccccc34)cc2)ccn1"
  Value Kind: "CLint scaled at 1 µM"
  Recorded Result: 141
